Target: T1, recombinant human SOST (rhSOST) (human, UniProt Q9BQB4 24-213)
T1 construct: Treated as one molecule; also called recombinant human SOST protein; human sclerostin
T1 sequence: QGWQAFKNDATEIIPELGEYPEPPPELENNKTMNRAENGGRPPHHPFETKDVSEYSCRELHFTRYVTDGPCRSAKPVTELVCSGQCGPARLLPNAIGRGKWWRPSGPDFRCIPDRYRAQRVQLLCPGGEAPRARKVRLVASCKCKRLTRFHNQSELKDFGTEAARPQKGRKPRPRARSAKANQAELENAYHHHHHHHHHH
Assay: SPR Biacore T200, IgG captured via anti-human Fc, rhSOST analyte, 37 C
quantity: pKd
// pKd here means minus log10 of the molar concentration (mol/L)

Asked: Dear colleague, I am looking for the recorded pKd of the following binder: DM23 (antibody, V domains shown, also called mH3/wt) VH: EVQLLESGGGLVQPGGSLRLSCAASGFTFSDYWMQWVRQAPGKGLEWIGAIYPGDGDTRYNQKFKDRFTISRDNSKNTLYLQMNSLRAEDTAVYYCARSMDYWGQGTLVTVSS VL: DIVMTQSPDSLAVSLGERATINCRASKTVDSYGNSFMHWFQQKPGQPPKLLIHHSSNLESGVPDRFSGSGSGTDFTLTISSLQAEDVAVYYCLQTIEDPYTFGQGTKLEIK
Given back: 11.00

Asked: Need pKd, item DM12 (antibody, V domains shown, also called wt/mL1) VH: EVQLLESGGGLVQPGGSLRLSCAASGHTFTDYWMQWVRQAPGKGLEWIGAIYPGDGDTRYNQKFKDRFTISRDNSKNTLYLQMNSLRAEDTAVYYCARSMDYWGQGTLVTVSS VL: DIVMTQSPDSLAVSLGERATINCRASKTVDSYGNSFMHWYQQKPGQPPKLLIHHSSNLESGVPDRFSGSGSGTDFTLTISSLQAEDVAVYYCLQTIEDPYTFGQGTKLEIK
Given back: 11.05

Asked: Endpoint output: pKd of DM21 (antibody, V domains shown, also called mH1/mL2) VH: EVQLLESGGGLVQPGGSLRLSCAASGHTFSDYWMQWVRQAPGKGLEWIGAIYPGDGDTRYNQKFKDRFTISRDNSKNTLYLQMNSLRAEDTAVYYCARSMDYWGQGTLVTVSS VL: DIVMTQSPDSLAVSLGERATINCRASKTVDSYGNSFMHWFQQKPGQPPKLLIYHSSNLESGVPDRFSGSGSGTDFTLTISSLQAEDVAVYYCLQTIEDPYTFGQGTKLEIK . Value?
Given back: 11.10

Asked: Bench note: what pKd did DM34 (antibody, V domains shown, also called mH11/mL19) VH: EVQLLESGGGLVQPGGSLRLSCAASGFTFSDYWMQWVRQAPGKGLEWVGAIYPGDGDTRYNQKFKDRFTISRDNSKNTLYLQMNSLRAEDTAVYYCARSMDYWGQGTLVTVSS VL: DIVMTQSPDSLAVSLGERATINCRASKTVDSYGNSFMHWYQQKPGQPPKLLIYHSSNLESGVPDRFSGSGSGTDFTLTISSLQAEDVAVYYCLQTIEDSYTFGQGTKLEIK show?
Given back: 8.78

Asked: Quick one: pKd of DM28 (antibody, V domains shown, also called mH8/wt) VH: EVQLLESGGGLVQPGGSLRLSCAASGHTFTDYWMQWVRQAPGKGLEWIGAIYPGDGDTRYAQSVKGRFTISRDNSKNTLYLQMNSLRAEDTAVYYCARSMDYWGQGTLVTVSS VL: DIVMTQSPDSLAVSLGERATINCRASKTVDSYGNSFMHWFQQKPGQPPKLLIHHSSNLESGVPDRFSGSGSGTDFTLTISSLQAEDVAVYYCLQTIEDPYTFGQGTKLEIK ?
Given back: 10.00

These data points were gathered from patent WO2015087187A1.
